measured-target: monoclonal antibody (mAb) to detect Aβ42-derived peptide species with free N-terminus (generated in Example 1)
method-description: competition ELISA: soluble peptide against plate-bound DAEFRH-C-BSA for the biotinylated mAb, FIG. 7
Exercise: state measured IC50 for each of the binders provided.

Query (binder): SSEFRVSC [Peptide 4024 SSEFRVS] ; field requested: IC50
< 0.5 µg/mL

Further, for SWELRQAC [Peptide 4020 SWELRQA] ?
> 0.5 µg/mL

Here is the next binder: SYEFRHHC [Peptide 4022 SYEFRHH]
< 0.5 µg/mL

Same read-out for DWEFRDC [Peptide 4025 DWEFRD] ?
< 0.5 µg/mL

And the next one, SVEFRYHC [Peptide 4021 SVEFRYH] ?
< 0.5 µg/mL

Check SQEFRTPC [Peptide 4023 SQEFRTP] too.
< 0.5 µg/mL
